Reference source: ChEMBL document CHEMBL1148736

Molecular target: Oxysterols receptor LXR-alpha (Homo sapiens, UniProt Q13133)
Sequence (Q13133 whole entry): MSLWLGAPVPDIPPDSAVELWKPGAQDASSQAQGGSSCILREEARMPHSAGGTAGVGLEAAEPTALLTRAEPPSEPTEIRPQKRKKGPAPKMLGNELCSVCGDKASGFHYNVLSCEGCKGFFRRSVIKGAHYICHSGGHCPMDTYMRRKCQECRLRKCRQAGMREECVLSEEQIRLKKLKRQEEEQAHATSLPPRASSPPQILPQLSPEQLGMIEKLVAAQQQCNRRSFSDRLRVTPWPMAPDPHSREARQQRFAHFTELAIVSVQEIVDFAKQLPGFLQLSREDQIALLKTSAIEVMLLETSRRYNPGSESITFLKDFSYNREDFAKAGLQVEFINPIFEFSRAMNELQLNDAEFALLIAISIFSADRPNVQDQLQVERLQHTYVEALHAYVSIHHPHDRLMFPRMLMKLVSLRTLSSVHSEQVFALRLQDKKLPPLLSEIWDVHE
Assay: Agonist activity at GAL-linked human LXRalpha expressed in THP1 cells assessed as stimulation of coactivator recruitment by FRET assay
Format: functional
value-kind: pEC50
Expect pEC50 as a plain number equal to -log10 of the molar concentration.

A selection of reference data follows.
compound	value-kind	val
COc1cccc(C2SC(c3ccc(Cl)cc3)=NN2C(=O)c2c(F)cc(F)cc2F)c1OC (racemic)	pEC50	5.64
COc1cccc(C2SC(c3ccc(F)cc3)=NN2C(=O)c2c(F)cc(F)cc2F)c1OC (stereo not given)	pEC50	5.85
COc1cccc([C@H]2SC(c3ccc(Cl)cc3)=NN2C(=O)c2c(F)cc(F)cc2F)c1OC	pEC50	5.80
COc1ccccc1C1SC(c2ccc(Cl)cc2)=NN1C(=O)c1c(F)cc(F)cc1F (stereo not given)	pEC50	6.74

Kindly consider the entry below.
In: I have this compound here, O=C(c1c(F)cc(F)cc1F)N1N=C(c2ccc(Cl)cc2)SC1c1cccc2c1OC(F)(F)O2 (stereo not given) , and I need its recorded pEC50.
Out: 5.41
